Listed below: inhibition values for each entry.
molecular target: Casein kinase I delta/epsilon (Homo sapiens, UniProt P48730+P49674); assay: Inhibition of CK-1 delta/epsilon (unknown origin) at 10 uM relative to control; type: protein-complex assay
Sequence (P48730 whole entry, looked up): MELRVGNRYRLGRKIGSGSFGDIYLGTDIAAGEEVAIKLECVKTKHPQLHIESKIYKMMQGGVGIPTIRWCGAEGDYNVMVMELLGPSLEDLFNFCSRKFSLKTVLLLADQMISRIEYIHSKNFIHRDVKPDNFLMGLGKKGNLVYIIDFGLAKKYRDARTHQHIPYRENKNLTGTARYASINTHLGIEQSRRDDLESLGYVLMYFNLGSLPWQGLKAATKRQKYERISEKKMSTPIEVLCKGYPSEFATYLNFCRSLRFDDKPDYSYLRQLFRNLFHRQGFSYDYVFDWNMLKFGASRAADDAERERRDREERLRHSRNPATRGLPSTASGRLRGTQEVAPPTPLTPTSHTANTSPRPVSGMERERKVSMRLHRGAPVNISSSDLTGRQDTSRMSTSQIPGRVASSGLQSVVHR
Sequence (P49674 whole entry, looked up): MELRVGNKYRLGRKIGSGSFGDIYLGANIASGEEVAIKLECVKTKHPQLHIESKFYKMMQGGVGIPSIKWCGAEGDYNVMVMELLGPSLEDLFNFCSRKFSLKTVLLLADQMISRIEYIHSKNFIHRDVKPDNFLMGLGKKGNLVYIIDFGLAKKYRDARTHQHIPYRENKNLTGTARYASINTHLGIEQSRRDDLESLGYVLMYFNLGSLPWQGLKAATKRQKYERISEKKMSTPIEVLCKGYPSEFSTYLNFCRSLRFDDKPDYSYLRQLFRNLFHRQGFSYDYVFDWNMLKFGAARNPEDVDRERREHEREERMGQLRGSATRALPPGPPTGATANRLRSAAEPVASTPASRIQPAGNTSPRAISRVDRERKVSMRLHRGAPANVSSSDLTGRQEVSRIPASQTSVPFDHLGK
Numeric answer only, unit % assumed.

Clc1cccc(OCCc2cc([C@@H]3CCN(Cc4cccc5ncccc45)C3)n[nH]2)c1 37
Cc1cc(C)c2cc(CN(CCc3ccccc3)Cc3nnnn3Cc3ccco3)c(=O)[nH]c2c1 12
COc1cc(/C=C2\S/C(=N/c3ccc(C)c(C)c3)NC2=O)ccc1OCc1ccc2ccccc2c1 14

# ---- query molecule ----
Fill in the blank: the reported inhibition of "Clc1ccccc1OCCc1cc([C@@H]2CCN(Cc3cccc4ncccc34)C2)n[nH]1" is ____.
28

* * *

molecular target: Cyclin-dependent kinase 5 (Homo sapiens); test: Inhibition of CDK5 (unknown origin) at 10 uM relative to control
Sequence (Q00535 whole entry, looked up): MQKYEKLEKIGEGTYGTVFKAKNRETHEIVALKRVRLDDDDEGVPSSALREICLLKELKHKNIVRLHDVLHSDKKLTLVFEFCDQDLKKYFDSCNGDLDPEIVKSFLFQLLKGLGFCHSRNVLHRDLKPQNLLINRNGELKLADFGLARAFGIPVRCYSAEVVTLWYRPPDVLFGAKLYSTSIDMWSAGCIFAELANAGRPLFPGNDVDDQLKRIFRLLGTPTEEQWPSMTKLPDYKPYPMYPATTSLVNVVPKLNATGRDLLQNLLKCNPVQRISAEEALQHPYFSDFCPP
The source made the active and inactive calls. The rule behind the calls is not given here.
Measurement Name: inhibition

COc1cc(/C=C2\S/C(=N/c3ccc(C)c(C)c3)NC2=O)ccc1OCc1ccc2ccccc2c1 11%
Cc1cc(C)c2cc(CN(CCc3ccccc3)Cc3nnnn3Cc3ccco3)c(=O)[nH]c2c1 7%
Clc1ccccc1OCCc1cc([C@@H]2CCN(Cc3cccc4ncccc34)C2)n[nH]1 inactive
Clc1cccc(OCCc2cc([C@@H]3CCN(Cc4cccc5ncccc45)C3)n[nH]2)c1 inactive

* * *

molecular target: Cyclin-dependent kinase 9 (Homo sapiens, UniProt P50750); experiment: Inhibition of CDK9 (unknown origin) at 10 uM relative to control
Sequence (P50750 whole entry): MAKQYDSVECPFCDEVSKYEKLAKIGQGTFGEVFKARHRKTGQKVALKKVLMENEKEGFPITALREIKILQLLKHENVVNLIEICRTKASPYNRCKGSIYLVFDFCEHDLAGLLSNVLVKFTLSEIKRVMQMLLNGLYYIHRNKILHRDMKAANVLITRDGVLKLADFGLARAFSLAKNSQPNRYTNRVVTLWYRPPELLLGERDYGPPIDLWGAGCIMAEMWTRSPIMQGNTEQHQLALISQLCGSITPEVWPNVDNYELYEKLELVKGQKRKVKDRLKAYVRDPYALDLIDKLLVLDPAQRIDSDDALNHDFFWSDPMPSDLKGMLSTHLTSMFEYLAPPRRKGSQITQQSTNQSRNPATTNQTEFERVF
Listed below: inhibition values for each entry.
Answer with the number, then the unit.

Worked cases, inhibition given:
Clc1ccccc1OCCc1cc([C@@H]2CCN(Cc3cccc4ncccc34)C2)n[nH]1 18%
Cc1cc(C)c2cc(CN(CCc3ccccc3)Cc3nnnn3Cc3ccco3)c(=O)[nH]c2c1 23%

Fill in the blank: the reported inhibition of "Clc1cccc(OCCc2cc([C@@H]3CCN(Cc4cccc5ncccc45)C3)n[nH]2)c1" is ____.
29%

Fill in the blank: the reported inhibition of "COc1cc(/C=C2\S/C(=N/c3ccc(C)c(C)c3)NC2=O)ccc1OCc1ccc2ccccc2c1" is ____.
29%

* * *

Listed below: inhibition values for each entry.
molecular target: Dual specificity protein kinase CLK1 (Homo sapiens, UniProt P49759); assay: Inhibition of CLK1 (unknown origin) at 10 uM relative to control
Sequence (P49759 whole entry, looked up): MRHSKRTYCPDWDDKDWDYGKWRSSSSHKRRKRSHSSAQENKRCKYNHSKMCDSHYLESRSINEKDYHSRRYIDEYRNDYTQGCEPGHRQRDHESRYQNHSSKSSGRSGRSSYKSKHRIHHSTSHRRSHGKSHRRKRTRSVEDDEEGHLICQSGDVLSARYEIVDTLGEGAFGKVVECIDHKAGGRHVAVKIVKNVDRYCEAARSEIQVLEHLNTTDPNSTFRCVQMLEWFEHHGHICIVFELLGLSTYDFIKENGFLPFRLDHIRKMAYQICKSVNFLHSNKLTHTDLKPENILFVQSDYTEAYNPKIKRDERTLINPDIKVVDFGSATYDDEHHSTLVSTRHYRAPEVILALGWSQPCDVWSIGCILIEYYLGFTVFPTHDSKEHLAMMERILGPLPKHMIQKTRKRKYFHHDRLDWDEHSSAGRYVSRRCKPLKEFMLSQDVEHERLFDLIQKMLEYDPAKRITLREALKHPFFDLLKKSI

COc1cc(/C=C2\S/C(=N/c3ccc(C)c(C)c3)NC2=O)ccc1OCc1ccc2ccccc2c1 22%
Clc1ccccc1OCCc1cc([C@@H]2CCN(Cc3cccc4ncccc34)C2)n[nH]1 11%

# ---- query compound ----
Fill in the blank: the reported inhibition of "Clc1cccc(OCCc2cc([C@@H]3CCN(Cc4cccc5ncccc45)C3)n[nH]2)c1" is ____.
9%

* * *

biological target: Dual specificity tyrosine-phosphorylation-regulated kinase 1A (Homo sapiens); assay: Inhibition of DYRK1A (unknown origin) at 10 uM relative to control
The source made the active and inactive calls. The calls are words filed in the database; no cut-off is given here.
Measurement Name: inhibition

Clc1cccc(OCCc2cc([C@@H]3CCN(Cc4cccc5ncccc45)C3)n[nH]2)c1 inactive
COc1cc(/C=C2\S/C(=N/c3ccc(C)c(C)c3)NC2=O)ccc1OCc1ccc2ccccc2c1 16%
Clc1ccccc1OCCc1cc([C@@H]2CCN(Cc3cccc4ncccc34)C2)n[nH]1 inactive
Cc1cc(C)c2cc(CN(CCc3ccccc3)Cc3nnnn3Cc3ccco3)c(=O)[nH]c2c1 6%

* * *

biological target: Serine/threonine-protein kinase haspin (Homo sapiens); experiment: Inhibition of HASPIN (unknown origin) at 10 uM relative to control
Measurement Name: inhibition

Worked cases, inhibition given:
Cc1cc(C)c2cc(CN(CCc3ccccc3)Cc3nnnn3Cc3ccco3)c(=O)[nH]c2c1 29%
COc1cc(/C=C2\S/C(=N/c3ccc(C)c(C)c3)NC2=O)ccc1OCc1ccc2ccccc2c1 22%

# ---- query compound ----
Fill in the blank: the reported inhibition of "Clc1cccc(OCCc2cc([C@@H]3CCN(Cc4cccc5ncccc45)C3)n[nH]2)c1" is ____.
33%

* * *

biological target: Serine/threonine-protein kinase pim-1 (Homo sapiens); assay: Inhibition of PIM1 (unknown origin) at 10 uM relative to control
Sequence (P11309 whole entry, looked up): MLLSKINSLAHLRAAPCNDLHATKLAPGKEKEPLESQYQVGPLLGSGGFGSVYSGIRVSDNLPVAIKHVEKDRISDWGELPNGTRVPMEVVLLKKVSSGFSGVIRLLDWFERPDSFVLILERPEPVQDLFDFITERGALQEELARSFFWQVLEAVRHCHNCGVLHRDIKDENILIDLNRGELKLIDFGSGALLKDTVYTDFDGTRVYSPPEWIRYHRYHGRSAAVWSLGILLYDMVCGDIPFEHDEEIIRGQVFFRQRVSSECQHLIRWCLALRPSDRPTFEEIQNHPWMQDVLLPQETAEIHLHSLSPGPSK
Listed below: inhibition values for each entry.
Numeric answer only, unit % assumed.

Cc1cc(C)c2cc(CN(CCc3ccccc3)Cc3nnnn3Cc3ccco3)c(=O)[nH]c2c1 16
Clc1ccccc1OCCc1cc([C@@H]2CCN(Cc3cccc4ncccc34)C2)n[nH]1 19
COc1cc(/C=C2\S/C(=N/c3ccc(C)c(C)c3)NC2=O)ccc1OCc1ccc2ccccc2c1 29

# ---- query compound ----
Fill in the blank: the reported inhibition of "Clc1cccc(OCCc2cc([C@@H]3CCN(Cc4cccc5ncccc45)C3)n[nH]2)c1" is ____.
22

* * *

Listed below: inhibition values for each entry.
target: Glycogen synthase kinase-3 beta (Homo sapiens, UniProt P49841); assay: Inhibition of GSK3beta (unknown origin) at 10 uM relative to control
Sequence (P49841 whole entry, looked up): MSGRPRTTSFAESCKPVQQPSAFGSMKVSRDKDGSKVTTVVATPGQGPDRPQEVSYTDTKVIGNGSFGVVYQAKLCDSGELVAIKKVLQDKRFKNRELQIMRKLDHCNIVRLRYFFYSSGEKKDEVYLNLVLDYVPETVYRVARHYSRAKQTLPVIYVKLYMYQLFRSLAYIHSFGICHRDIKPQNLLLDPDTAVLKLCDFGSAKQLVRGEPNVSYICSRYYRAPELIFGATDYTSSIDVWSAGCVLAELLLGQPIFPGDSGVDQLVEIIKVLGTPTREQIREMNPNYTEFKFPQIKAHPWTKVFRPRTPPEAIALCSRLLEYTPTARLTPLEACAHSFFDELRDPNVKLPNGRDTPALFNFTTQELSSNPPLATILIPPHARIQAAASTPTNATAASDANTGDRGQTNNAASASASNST
Numeric answer only, unit % assumed.

Worked cases, inhibition given:
Clc1ccccc1OCCc1cc([C@@H]2CCN(Cc3cccc4ncccc34)C2)n[nH]1 5
Cc1cc(C)c2cc(CN(CCc3ccccc3)Cc3nnnn3Cc3ccco3)c(=O)[nH]c2c1 25
Clc1cccc(OCCc2cc([C@@H]3CCN(Cc4cccc5ncccc45)C3)n[nH]2)c1 10

# ---- query compound ----
Fill in the blank: the reported inhibition of "COc1cc(/C=C2\S/C(=N/c3ccc(C)c(C)c3)NC2=O)ccc1OCc1ccc2ccccc2c1" is ____.
80

* * *

biological target: UniProt P49841
Measurement Name: pIC50
Just so you know, pIC50 here is -log10 of the concentration in molar units; reply with that number alone.

Fill in the blank: the reported pIC50 of "COc1cc(/C=C2\S/C(=N/c3ccc(C)c(C)c3)NC2=O)ccc1OCc1ccc2ccccc2c1" is ____.
5.97

* * *

target: Casein kinase I delta/epsilon (Homo sapiens, UniProt P48730+P49674); experiment: Inhibition of CK-1 delta/epsilon (unknown origin)
Sequence (P48730 whole entry): as the sequence (P48730 whole entry, looked up) above
Sequence (P49674 whole entry): as the sequence (P49674 whole entry, looked up) above
Measurement Name: IC50

Fill in the blank: the reported IC50 of "COc1cc(/C=C2\S/C(=N/c3ccc(C)c(C)c3)NC2=O)ccc1OCc1ccc2ccccc2c1" is ____.
> 10 µM
